Reference source for all entries: patent US8288430B2

system: hERG ion channel (Homo sapiens)
Sequence (Q12809 whole entry): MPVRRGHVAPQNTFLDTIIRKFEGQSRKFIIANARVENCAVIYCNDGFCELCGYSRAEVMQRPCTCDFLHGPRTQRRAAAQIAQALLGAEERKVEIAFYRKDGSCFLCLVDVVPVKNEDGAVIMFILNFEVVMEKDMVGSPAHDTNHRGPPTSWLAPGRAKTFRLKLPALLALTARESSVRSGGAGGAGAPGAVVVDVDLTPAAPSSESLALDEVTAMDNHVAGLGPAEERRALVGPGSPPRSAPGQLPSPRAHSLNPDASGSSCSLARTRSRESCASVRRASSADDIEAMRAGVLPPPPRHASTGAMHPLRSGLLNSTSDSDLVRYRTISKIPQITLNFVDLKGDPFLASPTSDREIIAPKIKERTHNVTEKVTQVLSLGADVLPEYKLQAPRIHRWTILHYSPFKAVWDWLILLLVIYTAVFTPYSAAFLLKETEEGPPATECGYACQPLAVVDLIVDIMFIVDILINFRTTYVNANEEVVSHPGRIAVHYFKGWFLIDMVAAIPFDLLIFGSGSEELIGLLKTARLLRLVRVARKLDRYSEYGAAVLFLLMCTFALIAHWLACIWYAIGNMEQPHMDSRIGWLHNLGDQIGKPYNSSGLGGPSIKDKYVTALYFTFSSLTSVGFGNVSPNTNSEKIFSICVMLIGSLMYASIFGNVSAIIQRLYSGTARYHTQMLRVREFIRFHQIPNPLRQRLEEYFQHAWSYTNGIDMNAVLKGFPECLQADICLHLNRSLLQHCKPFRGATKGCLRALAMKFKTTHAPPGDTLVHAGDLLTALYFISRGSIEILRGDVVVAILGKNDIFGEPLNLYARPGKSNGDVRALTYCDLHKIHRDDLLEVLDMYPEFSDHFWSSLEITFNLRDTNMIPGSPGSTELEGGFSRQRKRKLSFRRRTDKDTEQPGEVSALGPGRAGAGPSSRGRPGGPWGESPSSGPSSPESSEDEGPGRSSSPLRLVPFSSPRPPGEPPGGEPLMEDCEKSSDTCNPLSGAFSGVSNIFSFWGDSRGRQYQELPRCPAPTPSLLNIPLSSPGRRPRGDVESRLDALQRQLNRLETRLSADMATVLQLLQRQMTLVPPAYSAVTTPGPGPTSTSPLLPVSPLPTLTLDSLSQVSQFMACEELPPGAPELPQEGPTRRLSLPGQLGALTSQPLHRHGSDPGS
reported metric: pKi
The value called pKi is obtained by taking minus log10 of the concentration in mol/L.

Prompt: // returns reported pKi for input CN(C)C1(c2ccccc2)CCC2(CC1)NCCc1c2[nH]c2ccccc12 (single isomer, unassigned) [C-2, reference compound]
Response: 6.31
